All values here come from ChEMBL document CHEMBL1649395.

- System: Streptococcus pneumoniae
- ASSAY: Antibacterial activity against erythromycin-resistant Streptococcus pneumoniae 07D201 by broth microdilution method
- Format: functional
Recorded MIC values for a group of compounds are listed next.

{"CHEM SMILES": "CC[C@H]1OC(=O)[C@H](C)[C@@H](O[C@H]2C[C@@](C)(OC)[C@@H](O)[C@H](C)O2)[C@H](C)[C@@H](O[C@@H]2O[C@H](C)C[C@H](N(C)C)[C@H]2O)[C@](C)(OC)C[C@@H](C)C(=O)[C@H](C)[C@@H](O)[C@]1(C)O", "MIC": "> 32 µg/mL"}
{"CHEM SMILES": "CC[C@H]1OC(=O)[C@H](C)C(=O)[C@H](C)[C@@H](O[C@@H]2O[C@H](C)C[C@H](N(C)C)[C@H]2O)[C@@](C)(OC)C[C@@H](C)C(=O)[C@H](C)[C@H]2N(CCCSc3nccs3)C(=O)O[C@]12C", "MIC": "> 32 µg/mL"}

Here is the next item to consider.
Ask | Recorded MIC for CC[C@H]1OC(=O)[C@H](C)C(=O)[C@H](C)[C@@H](O[C@@H]2O[C@H](C)C[C@H](N(C)C)[C@H]2O)[C@@](C)(OC)C[C@@H](C)C(=O)/C(C)=C/[C@]1(C)OC(=O)NCCCSc1ncnc2[nH]ncc12 with Streptococcus pneumoniae, please?
Reply | > 16 µg/mL
